# system under test: HisAviTEV-hSTING (139-342) human REF-mutated protein (Homo sapiens, UniProt Q86WV6)
# Construct: made in house; host or cells: E. coli Rosetta 2 (DE3), co-expressed with BirA (1-321)
# Sequence (Q86WV6 with tags, fused parts or gaps, change not shown): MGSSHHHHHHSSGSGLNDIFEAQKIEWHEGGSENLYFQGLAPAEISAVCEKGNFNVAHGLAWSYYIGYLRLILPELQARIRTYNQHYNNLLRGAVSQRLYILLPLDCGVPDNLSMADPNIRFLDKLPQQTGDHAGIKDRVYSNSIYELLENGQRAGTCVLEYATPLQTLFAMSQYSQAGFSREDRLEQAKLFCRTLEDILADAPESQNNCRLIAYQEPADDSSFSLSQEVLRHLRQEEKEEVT
# measurement notes: Protein thermal shift assay, STING C-terminal binding domain protein
# run parameters: test compound final concentration 0.5 mM
measured attribute: ΔTm at 500 µM (°C)

Nc1ncnc2c1ncn2[C@@H]1O[C@@H]2COP(=O)(S)O[C@H]3[C@@H](O)[C@H](n4cc5c6c(ncnc64)SCCC5)O[C@@H]3COP(=O)(S)O[C@@H]1[C@@H]2O (single isomer, unassigned) [23a] = 4.2

(P) O=c1c2ncn([C@@H]3O[C@@H]4COP(=O)(S)O[C@H]5[C@@H](O)[C@H](n6cc7c8c(ncnc86)NCCC7)O[C@@H]5COP(=O)(S)O[C@@H]3[C@@H]4F)c2ncn1CCO (single isomer, unassigned) [39a]
(Q) O=C(CO)NCCn1cnc2c(ncn2[C@@H]2O[C@@H]3COP(=O)(S)O[C@H]4[C@@H](O)[C@H](n5cc6c7c(ncnc75)NCCC6)O[C@@H]4COP(=O)(S)O[C@@H]2[C@@H]3O)c1=O (single isomer, unassigned)
q: Given P and Q , report the one with the higher recorded ΔTm at 500 µM. Answer format: the label of the selected item.
a: P
(P: 5.7 °C, Q: 3.9 °C)
